# credit: the supplement of paper PMC9170038

System: K4 kissing-loop RNA reporter;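 also: bound reporter read as fluorescence of individual clusters on recovered sequencing chips by microscopy, with normalized cluster intensities fitted with a binding model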
Assay: apparent KD of K4 kissing-loop reporter; higher = weaker reporter binding
Details: Eterna round: R107; input ligand: theophylline 20 uM
Could you please report measured apparent KD of K4 kissing-loop reporter for the items listed next?

Returns the measured apparent KD of K4 kissing-loop reporter for the input sequence. Input: AGAGUUGACGAAAAGUCAACUCUACGAGAAGGAGCGCACGAAAGUGCAGGUAGGUCGCUCAGUCCAGUGAUGUUGGAACAUAAAA [#OpenEnded 8]
84.1 nM

Quick check: apparent KD of K4 kissing-loop reporter of AGACUACUGAUAGGAUAUAACAUACUAGCUCGUAUACCAAAGGUAUACGAGCACCUUCUAGUGAUGUUAGAAGGGUCGGUAGUCA [Omei KL FMN B Exc B v3] ?
109 nM

apparent KD of K4 kissing-loop reporter lookup needed for AUAGACUUGCAGUGAUGUUGCAAGUGAGACUAGGAUAUCAGGAAGCUGAGAAGGAGUCAUCUCCUUCAGACAUCACUAUGAAGGA [whbob_SS_FMNA__2th180] , thanks.
204 nM

What value of measured apparent KD of K4 kissing-loop reporter is listed for GGGAGGAGUGGUGUUGAUUAAGAAGCGGAAGGAGCGCCGAAGAAGGCAGGUAGGUCGCCGAAAUAUAGUGAUGUUAUAUAAAGGG [ExArg.C] ?
262 nM

Looking for the measured apparent KD of K4 kissing-loop reporter of UUUGGUUUCUCGGCCGCCACUCGUUGGUUAUGGGCUUCAGGGAUAUAGUGAUGUUAUGUAUAGAAGAGGACCGGGAGAAGGAAGG [ExTryptoB.Dq] , can you help?
186 nM

Quick one: apparent KD of K4 kissing-loop reporter for AGUGAUAUAUGAGGAUAUGGGUUAAUUAGUGAGUGAUUUUUAGUGUUGUUUGAUUAGUGAUGUUAUUUAGAAGGCGUGAGUGAUG [mvvmjmullin] ?
144 nM

====

System: MS2 coat protein
Test: apparent KD of MS2 coat protein, switch OFF state (with FMN for OFF switches, without FMN for ON switches); designed switch direction (-1 OFF switch, 1 ON switch): -1; higher = weaker reporter binding
Conditions: FMN input: 0 or 200 uM; Eterna round: R93 (includes R88 designs)
For each entry below, report its apparent KD of MS2 coat protein value.
Include the unit right after the number.

So what apparent KD of MS2 coat protein did AAAAUGUGAGGAUAUGUACGAAAAAAUAAAAAAAUAAAAGUACAGAAGGCACAUGAGGAUCACCCAUGUGUGGG [EX4 400: Minimal 13] get with MS2 coat protein?
76.1 nM

Lab note: need apparent KD of MS2 coat protein for AAAAUACAUGAGGAUCACCCAUGUCAGGAUAUGCUAAAAAAAAAAUUAAAAAAAAAAUGUAGAAGGGACUAAAA [Exclusion Z2] on MS2 coat protein, anyone have it?
40 nM

Could you share what apparent KD of MS2 coat protein was measured for UAAGGACAUGAGGAUCACCCAUGUGAGGAUAUGCUCUACGAACGUUUAUUUAUGAGAAGCAGAAGGCACAUUUU [try 2] , tested on MS2 coat protein?
127 nM

Item: UUUAUGUGAGGAUAUGUACAGAAAAAAAAGGGUGUAACUGUACAGAAGGCACAUGAGGAUCACCCAUGUGAAUA [EX4 381: S S Pseudoknot 6] Test system: MS2 coat protein Read-out: apparent KD of MS2 coat protein Value: ?
216 nM

Item: AGAAAGUCAGGAUAUAUGCGAAAAAUAAAAAAAAUAAAAACAUAGAAGGGACAUGAGGAUCACCCAUGUUAAGA [Mat - Exclusion 4 - Mayanna - D136] Test system: MS2 coat protein Read-out: apparent KD of MS2 coat protein Value: ?
32 nM

# returns recorded apparent KD of MS2 coat protein (system: MS2 coat protein) for AACAGUACAGGAUAUACAUGAGGAUCACCCAUGUGAGACUUAAGUGGCGUACCACAAAGUAGAAGGGUACUGGA [JL Maslow Revisted mod 8]
386 nM

Identify the measured apparent KD of MS2 coat protein of GAAAGGGCAGGAUAUGCAGAGAGAGAGAGAGAGAGAGAGAAACAUGAGGAUCACCCAUGUAGAAGGGCCGAAAG [salish99-ex2-07] for MS2 coat protein.
29.2 nM

What value of apparent KD of MS2 coat protein on MS2 coat protein does AAAUAGCAAGGAUAUACAUGAGGAUCACCCAUGUAAAAAUGGAAAGUAAAAGAAUAAAGUAGAAGGUGCAAAUA [Ex 3 Tesla 2] have?
36.9 nM

// lookup apparent KD of MS2 coat protein | system=MS2 coat protein | key= AAGAAGCGAGGAUAUACAAAAUAAAAGAAAAGAAAGAAAGAACAUGAGGAUCACCCAUGUAGAAGGCGCAAGAA [Semenkare Nebnuni]
28.5 nM

Please state recorded apparent KD of MS2 coat protein (tested on MS2 coat protein) of UAAAGACAUGAGGAUCACCCAUGUGAGGAUAUAGGUGUAUGCAAAAAAAAGCAUACACCUAGAAGGCACAGAAA [JR_Exc001_Sub303]
76.3 nM

API: value(readout= apparent KD of MS2 coat protein, system= MS2 coat protein, query= AAGAAACAUGAGGAUCACCCAUGUCAGGAUAUGCAAAACUGACGAAAGUCAGAAGAAAGCAGAAGGGACUAGAA [5-pair stack] )
52 nM

Lookup: apparent KD of MS2 coat protein / MS2 coat protein / AGACAUACAGGAUAUACAUAGGAAAAAAAAAAAAAAAUUCAACAUGAGGAUCACCCAUGUAGAAGGGUAUGUCA [Ex2 Design 172: Random 2]
69.9 nM

MS2 coat protein / apparent KD of MS2 coat protein / AAAAAGUGAGGAUAUACGAAAAAAAAAAAAAAAAAAGGUGAACAUGAGGAUCACCCAUGUAGAAGGCACAAAAA [Black Design] : value?
312 nM
